target: Cytosolic phospholipase A2 (Homo sapiens) (UniProt P47712); test: Inhibition of group 4A cPLA2
Sequence (P47712 whole entry): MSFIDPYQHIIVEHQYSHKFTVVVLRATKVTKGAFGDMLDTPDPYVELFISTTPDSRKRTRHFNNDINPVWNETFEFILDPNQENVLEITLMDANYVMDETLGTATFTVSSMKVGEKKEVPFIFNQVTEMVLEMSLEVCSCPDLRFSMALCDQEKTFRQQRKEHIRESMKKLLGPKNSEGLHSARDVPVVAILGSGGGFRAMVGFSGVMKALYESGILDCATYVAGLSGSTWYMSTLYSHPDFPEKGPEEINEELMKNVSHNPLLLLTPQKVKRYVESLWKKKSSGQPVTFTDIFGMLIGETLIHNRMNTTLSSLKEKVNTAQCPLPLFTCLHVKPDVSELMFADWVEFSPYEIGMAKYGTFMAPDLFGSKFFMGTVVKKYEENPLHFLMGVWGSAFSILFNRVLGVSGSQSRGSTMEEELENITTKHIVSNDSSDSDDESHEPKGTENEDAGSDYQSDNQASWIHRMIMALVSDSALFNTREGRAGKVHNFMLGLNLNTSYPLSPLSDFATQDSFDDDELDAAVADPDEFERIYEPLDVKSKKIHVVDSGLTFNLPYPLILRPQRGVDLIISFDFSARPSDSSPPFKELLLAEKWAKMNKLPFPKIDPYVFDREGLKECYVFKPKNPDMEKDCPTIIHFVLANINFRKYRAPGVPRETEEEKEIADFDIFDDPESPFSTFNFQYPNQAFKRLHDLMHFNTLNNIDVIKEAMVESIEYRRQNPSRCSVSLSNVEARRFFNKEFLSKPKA
Consider the cut-off 0.01. If the recorded XI50 (mole fraction) is strictly smaller, the label is Y; if not, the label is N.

Does `CCCCCCCC/C=C\CCCCCCCC(=O)C(=O)NCCCC(=O)O` have XI50 (mole fraction) strictly under 0.01?
N

Does `CCCCCCCCCCCCCCC(=O)C(=O)NCCCC(=O)O` have XI50 (mole fraction) strictly under 0.01?
N

Does `CCCCCCCC/C=C\CCCCCCCC(=O)C(=O)NCCCC(=O)OC` have XI50 (mole fraction) strictly under 0.01?
N

Does `CCCCCCCCCCCCCCC(=O)C(=O)N[C@@H](/C=C/C(=O)OC)CCCC` have XI50 (mole fraction) strictly under 0.01?
N

Shifting focus to the compound that follows.
Does `CCCCCCCCCCCCCCC(=O)C(=O)N[C@H](/C=C/C(=O)O)CCCC` have XI50 (mole fraction) strictly under 0.01?
Y
